Molecular target: Tyrosine-protein kinase Tec (Homo sapiens, UniProt P42680)
Sequence (P42680 whole entry): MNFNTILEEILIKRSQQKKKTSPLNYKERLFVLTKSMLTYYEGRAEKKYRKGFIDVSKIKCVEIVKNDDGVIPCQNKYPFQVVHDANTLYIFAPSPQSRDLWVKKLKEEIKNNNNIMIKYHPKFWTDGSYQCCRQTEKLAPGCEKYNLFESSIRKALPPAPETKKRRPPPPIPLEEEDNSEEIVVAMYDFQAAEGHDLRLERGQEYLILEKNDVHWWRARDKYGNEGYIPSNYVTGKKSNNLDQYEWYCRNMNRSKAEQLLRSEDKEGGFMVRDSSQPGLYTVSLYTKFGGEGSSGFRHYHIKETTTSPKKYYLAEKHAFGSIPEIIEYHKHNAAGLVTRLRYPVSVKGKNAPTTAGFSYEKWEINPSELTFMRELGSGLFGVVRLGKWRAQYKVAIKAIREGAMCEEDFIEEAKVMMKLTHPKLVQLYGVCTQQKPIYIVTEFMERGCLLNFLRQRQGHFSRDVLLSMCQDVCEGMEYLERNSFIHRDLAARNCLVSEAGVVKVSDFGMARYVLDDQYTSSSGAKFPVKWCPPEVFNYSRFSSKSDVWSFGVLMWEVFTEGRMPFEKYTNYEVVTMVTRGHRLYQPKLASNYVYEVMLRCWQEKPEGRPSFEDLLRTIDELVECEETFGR
MEASURED_ENDPOINT: IC50

Query N#Cc1ccc(N2CC[C@@H](Nc3c(C(N)=O)cnc4[nH]ccc34)[C@@H](F)C2)nc1 yields IC50 of > 1 µM

* * *

assay: Volume of distribution at steady state in beagle dog at 1 mg/kg, iv by LC/MS/MS method; assay type: ADME, organism-based, Canis lupus familiaris; conditions: in vivo, read-out: Vdss
MEASURED_ENDPOINT: Vd (L/kg)
Field: numeric (L/kg). Do not append units.

Query N#Cc1ccc(N2CC[C@@H](Nc3c(C(N)=O)cnc4[nH]ccc34)[C@@H](F)C2)nc1 yields Vd of 1

* * *

molecular target: Mitogen-activated protein kinase kinase kinase 1 (Homo sapiens); test: Inhibition of MEKK1 (unknown origin)
Sequence (Q13233 whole entry): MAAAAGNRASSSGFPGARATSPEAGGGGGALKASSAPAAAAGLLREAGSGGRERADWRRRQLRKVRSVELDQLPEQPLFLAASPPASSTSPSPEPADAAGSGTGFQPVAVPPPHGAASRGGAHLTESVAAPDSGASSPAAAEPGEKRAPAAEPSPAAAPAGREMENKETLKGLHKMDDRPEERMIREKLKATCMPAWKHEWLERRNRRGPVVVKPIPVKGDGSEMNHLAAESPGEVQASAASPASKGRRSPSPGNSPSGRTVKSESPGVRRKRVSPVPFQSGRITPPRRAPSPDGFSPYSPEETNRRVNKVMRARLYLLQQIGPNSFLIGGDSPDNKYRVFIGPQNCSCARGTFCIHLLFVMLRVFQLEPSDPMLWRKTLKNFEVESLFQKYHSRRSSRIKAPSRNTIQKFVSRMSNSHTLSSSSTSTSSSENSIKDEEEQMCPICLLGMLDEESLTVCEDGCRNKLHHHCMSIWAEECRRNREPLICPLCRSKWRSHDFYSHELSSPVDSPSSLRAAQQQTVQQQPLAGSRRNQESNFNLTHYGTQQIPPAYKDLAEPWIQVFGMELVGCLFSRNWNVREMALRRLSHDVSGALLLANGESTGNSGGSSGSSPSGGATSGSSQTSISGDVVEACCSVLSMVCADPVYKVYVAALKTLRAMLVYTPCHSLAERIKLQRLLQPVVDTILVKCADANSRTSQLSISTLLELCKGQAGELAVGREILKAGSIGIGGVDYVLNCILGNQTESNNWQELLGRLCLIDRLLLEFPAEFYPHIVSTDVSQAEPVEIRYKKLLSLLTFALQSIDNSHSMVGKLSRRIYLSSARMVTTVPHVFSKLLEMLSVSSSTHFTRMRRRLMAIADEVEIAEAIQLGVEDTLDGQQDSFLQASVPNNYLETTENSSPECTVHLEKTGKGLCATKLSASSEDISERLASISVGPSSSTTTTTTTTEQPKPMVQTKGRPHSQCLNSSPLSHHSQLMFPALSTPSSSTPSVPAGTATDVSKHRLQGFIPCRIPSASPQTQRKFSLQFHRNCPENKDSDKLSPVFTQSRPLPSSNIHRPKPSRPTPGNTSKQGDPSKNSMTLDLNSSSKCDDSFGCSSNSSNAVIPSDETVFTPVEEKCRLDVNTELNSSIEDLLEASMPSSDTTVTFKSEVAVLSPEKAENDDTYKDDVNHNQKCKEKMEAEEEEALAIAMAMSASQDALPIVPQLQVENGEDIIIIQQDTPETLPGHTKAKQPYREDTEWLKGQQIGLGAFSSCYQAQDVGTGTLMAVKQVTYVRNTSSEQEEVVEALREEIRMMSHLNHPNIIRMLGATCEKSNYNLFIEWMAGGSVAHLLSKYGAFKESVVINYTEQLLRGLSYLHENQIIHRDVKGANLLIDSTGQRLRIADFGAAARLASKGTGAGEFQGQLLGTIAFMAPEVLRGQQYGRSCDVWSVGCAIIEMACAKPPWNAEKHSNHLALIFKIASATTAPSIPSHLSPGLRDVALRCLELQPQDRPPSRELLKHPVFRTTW
pIC50: −log10 of the molar value.
MEASURED_ENDPOINT: pIC50

Query N#Cc1ccc(N2CC[C@@H](Nc3c(C(N)=O)cnc4[nH]ccc34)[C@@H](F)C2)nc1 yields pIC50 of < 6.00

* * *

Biological target: UniProt Q9UQB9
Sequence (Q9UQB9 whole entry): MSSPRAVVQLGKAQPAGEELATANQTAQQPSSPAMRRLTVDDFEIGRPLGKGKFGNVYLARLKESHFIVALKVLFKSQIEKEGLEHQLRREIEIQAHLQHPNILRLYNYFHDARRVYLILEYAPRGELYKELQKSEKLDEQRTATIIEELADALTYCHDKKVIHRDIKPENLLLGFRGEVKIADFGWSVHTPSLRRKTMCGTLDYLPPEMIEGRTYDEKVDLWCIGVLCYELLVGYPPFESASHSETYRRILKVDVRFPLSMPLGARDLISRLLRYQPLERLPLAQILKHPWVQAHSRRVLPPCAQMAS
pIC50: −log10 of the molar value.
MEASURED_ENDPOINT: pIC50

Query N#Cc1ccc(N2CC[C@@H](Nc3c(C(N)=O)cnc4[nH]ccc34)[C@@H](F)C2)nc1 yields pIC50 of < 6.00
